Species: Rattus norvegicus
experimental protocol: DrugMatrix - Regimen: Daily Repeat
Assay type: toxicity, organism-based, Sprague-Dawley
Parameters: regimen Daily Repeat, gender Male, age 6-8 weeks
measurement setup: in vivo, po, 2000 mg/kg, 120 h, tissue Blood, route oral GAVAGE, dose level High, time 5 day, vehicle .5 % CMC
Reported EOSINOPHIL is given for each of the following molecules.
measurement label: EOSINOPHIL (%)

INSERT INTO measurements (molecule, readout_units, value) VALUES
  ('CN(C/C=C/C#CC(C)(C)C)Cc1cccc2ccccc12', '%', 0.33),
  ('O=C1Nc2ccc(Cl)cc2C(c2ccccc2Cl)=NC1O (stereo unspecified)', '%', 0),
  ('CN/C(=N/CCSCc1nc[nH]c1C)NC#N', '%', 0.67),
  ('NC1CCN(c2nc3c(cc2F)c(=O)c(C(=O)O)cn3-c2ccc(F)cc2F)C1 (stereo unspecified)', '%', 0.33),
  ('COc1cc2nc(N3CCN(C(=O)c4ccco4)CC3)nc(N)c2cc1OC', '%', 0),
  ('CC1(C)S[C@@H]2[C@H](NC(=O)[C@H](N)c3ccccc3)C(=O)N2[C@H]1C(=O)O', '%', 0.33);

---

Organism: Rattus norvegicus
experimental protocol: DrugMatrix - Regimen: Daily Repeat
Type: toxicity, organism-based, Sprague-Dawley
Parameters: regimen Daily Repeat, gender Male, age 6-8 weeks
measurement setup: in vivo, po, 0 mg/kg, 120 h, tissue Blood, route oral GAVAGE, dose level Control, time 5 day, vehicle 100 % SALINE
measurement label: ABSOLUTE LYMPHOCYTE (CELLS/uL)

INSERT INTO assay_data (compound, measurement_label, value) VALUES
  ('NC(=O)C[S+]([O-])C(c1ccccc1)c1ccccc1 (configuration not stated)', 'ABSOLUTE LYMPHOCYTE', 8681.17);

---

Species on record: Rattus norvegicus
experimental protocol: DrugMatrix - Regimen: Daily Repeat
Format: toxicity, organism-based, Sprague-Dawley
Parameters: regimen Daily Repeat, gender Male, age 6-8 weeks
measurement setup: in vivo, po, 1500 mg/kg, 120 h, tissue Plasma, route oral GAVAGE, dose level High, time 5 day, vehicle .5 % CMC
measurement label: LACTATE DEHYDROGENASE (u/L)

INSERT INTO measurements (compound, measurement_label, readout_units, value) VALUES
  ('O=c1cnn([C@@H]2O[C@H](CO)[C@@H](O)[C@H]2O)c(=O)[nH]1 [6-AZAURIDINE]', 'LACTATE DEHYDROGENASE', 'u/L', 129),
  ('COC(=O)Nc1nc2ccc([S+]([O-])c3ccccc3)cc2[nH]1 (stereo not given) [OXFENDAZOLE]', 'LACTATE DEHYDROGENASE', 'u/L', 165),
  ('CN(C)[C@@H]1C(O)=C(C(N)=O)C(=O)[C@@]2(O)C(O)=C3C(=O)c4c(O)ccc(Cl)c4[C@@](C)(O)[C@H]3C[C@@H]12 [CHLORTETRACYCLINE]', 'LACTATE DEHYDROGENASE', 'u/L', 67),
  ('CC(C)Oc1ccc2c(=O)c(-c3ccccc3)coc2c1 [IPRIFLAVONE]', 'LACTATE DEHYDROGENASE', 'u/L', 157.33),
  ('CC(C)=CCC/C(C)=C/CO [GERANIOL]', 'LACTATE DEHYDROGENASE', 'u/L', 772);

---

Species on record: Rattus norvegicus
experimental protocol: DrugMatrix - Regimen: Daily Repeat
Assay type: toxicity, organism-based, Sprague-Dawley
Set-up: regimen Daily Repeat, gender Male, age 6-8 weeks
measurement setup: in vivo, po, 10 mg/kg, 120 h, tissue Plasma, route oral GAVAGE, dose level Low, time 5 day, vehicle .5 % CMC
Reported ALBUMIN is given for each of the following compounds.
measurement label: ALBUMIN

INSERT INTO assay_data (compound, value) VALUES
  ('Fc1ccc(C(c2ccc(F)cc2)N2CCN(C/C=C/c3ccccc3)CC2)cc1 [FLUNARIZINE]', '4.43 G/DL'),
  ('O=C1CN=C(c2ccccc2Cl)c2cc([N+](=O)[O-])ccc2N1 [CLONAZEPAM]', '4.33 G/DL'),
  ('CNCCC(Oc1ccc(C(F)(F)F)cc1)c1ccccc1 (centres undefined) [FLUOXETINE]', '3.83 G/DL'),
  ('O=C1C(CC[S+]([O-])c2ccccc2)C(=O)N(c2ccccc2)N1c1ccccc1 (centres undefined) [SULFINPYRAZONE]', '4.23 G/DL');

---

Species: Rattus norvegicus
experimental protocol: DrugMatrix - Regimen: Daily Repeat
Format: toxicity, organism-based, Sprague-Dawley
Parameters: regimen Daily Repeat, gender Male, age 6-8 weeks
measurement setup: in vivo, sc, 0 mg/kg, 72 h, tissue Plasma, route subcutaneous, dose level Control, time 3 day, […]
measurement label: CHOLESTEROL

INSERT INTO measurements (compound, value) VALUES
  ('CC(C)(C)CC(C)(C)c1ccc(OCCOCC[N+](C)(C)Cc2ccccc2)cc1.[Cl-] [BENZETHONIUM CHLORIDE]', '70.5 mg/dL'),
  ('O=C(Nc1ccc(Br)cc1)c1cc(Br)cc(Br)c1O', '71 mg/dL'),
  ('Oc1c(Cl)cc(Cl)c(Cl)c1Cc1c(O)c(Cl)cc(Cl)c1Cl', '70.5 mg/dL'),
  ('CCC(=O)O[C@]1(C(=O)CCl)[C@@H](C)C[C@H]2[C@@H]3CCC4=CC(=O)C=C[C@]4(C)[C@@]3(F)[C@@H](O)C[C@@]21C [CLOBETASOL PROPIONATE]', '71 mg/dL'),
  ('CCN(CC)CCOCCC1=CCC2CC1C2(C)C (stereo not given)', '70.33 mg/dL');

---

Species: Rattus norvegicus
experimental protocol: DrugMatrix - Regimen: Daily Repeat
Type: toxicity, organism-based, Sprague-Dawley
Design: regimen Daily Repeat, gender Male, age 6-8 weeks
measurement setup: in vivo, ip, 40 mg/kg, […], tissue Blood, route intraperitoneal, dose level High, time 28 day, vehicle 100 % SALINE
measurement label: ABSOLUTE LYMPHOCYTE (cells/µL)

INSERT INTO results (sequence_code, measurement_label, readout_units, value) VALUES
  ('GENTAMICIN', 'ABSOLUTE LYMPHOCYTE', 'cells/µL', 11600);

---

Species: Rattus norvegicus
experimental protocol: DrugMatrix - Regimen: Daily Repeat
Format: toxicity, organism-based, Sprague-Dawley
Set-up: regimen Daily Repeat, gender Male, age 6-8 weeks
measurement setup: in vivo, po, 1500 mg/kg, 72 h, tissue Blood, route oral GAVAGE, dose level High, time 3 day, vehicle .5 % CMC
measurement label: EOSINOPHIL (%)

INSERT INTO assay_data (molecule, value) VALUES
  ('COC(=O)Nc1nc2ccc([S+]([O-])c3ccccc3)cc2[nH]1 (stereo not given)', 0),
  ('CC(C)Oc1ccc2c(=O)c(-c3ccccc3)coc2c1', 0),
  ('CN(C)[C@@H]1C(O)=C(C(N)=O)C(=O)[C@@]2(O)C(O)=C3C(=O)c4c(O)ccc(Cl)c4[C@@](C)(O)[C@H]3C[C@@H]12', 0.33),
  ('O=c1cnn([C@@H]2O[C@H](CO)[C@@H](O)[C@H]2O)c(=O)[nH]1', 0),
  ('CC(C)=CCC/C(C)=C/CO', 0);

---

Reported ABSOLUTE EOSINOPHIL is given for each of the following compounds.
Species on record: Rattus norvegicus
experimental protocol: DrugMatrix - Regimen: Daily Repeat
Format: toxicity, organism-based, Sprague-Dawley
Design: regimen Daily Repeat, gender Male, age 6-8 weeks
measurement setup: in vivo, po, 0 mg/kg, 72 h, tissue Blood, route oral GAVAGE, dose level Control, time 3 day, vehicle 100 % WATER
measurement label: ABSOLUTE EOSINOPHIL (CELLS/uL)

INSERT INTO results (compound, measurement_label, value) VALUES
  ('CCN(CC)CCNC(=O)c1cc(S(C)(=O)=O)ccc1OC [TIAPRIDE]', 'ABSOLUTE EOSINOPHIL', 151.33),
  ('Cc1ccc(NC(=O)c2ccc(CN3CCN(C)CC3)cc2)cc1Nc1nccc(-c2cccnc2)n1', 'ABSOLUTE EOSINOPHIL', 151.33),
  ('CS(=O)(=O)c1ccc([C@@H](O)[C@@H](CO)NC(=O)C(Cl)Cl)cc1', 'ABSOLUTE EOSINOPHIL', 151.33),
  ('CN1[C@@H]2CC[C@H]1C[C@@H](OC(=O)C(CO)c1ccccc1)C2 (some centres undefined)', 'ABSOLUTE EOSINOPHIL', 33.67),
  ('CC(C)NCC(O)c1ccc(NS(C)(=O)=O)cc1 (centres undefined)', 'ABSOLUTE EOSINOPHIL', 102),
  ('Cn1c(=O)c2[nH]cnc2n(C)c1=O.O', 'ABSOLUTE EOSINOPHIL', 168.33),
  ('O.O.O.O.O.O.[Cl-].[Cl-].[Sr+2] [STRONTIUM CHLORIDE HEXAHYDRATE]', 'ABSOLUTE EOSINOPHIL', 151.33),
  ('C[C@]12C=CC(=O)C=C1CC[C@@H]1[C@@H]2[C@@H](O)C[C@@]2(C)[C@H]1CC[C@]2(O)C(=O)CO', 'ABSOLUTE EOSINOPHIL', 24),
  ('CC(C)(C)CC(C)(C)c1ccc(OCCOCC[N+](C)(C)Cc2ccccc2)cc1.[Cl-] [BENZETHONIUM CHLORIDE]', 'ABSOLUTE EOSINOPHIL', 20.17);
